Molecular target: purified recombinant HIV-1 RT (Human immunodeficiency virus type 1 group M subtype B)
Construct: purified recombinant HIV-1 RT; purchased Roche
Test: RT (reverse transcriptase) assay, ELISA RT kit
Type: biochemical
Details: read-out: EC50, inhibition of recombinant HIV-1 RT activity (converted)
value.kind: EC50 (µM)

>>> numeric_value("CC1CCCCCCC(C)C(=O)OC2C(=CCl)C=C3C2(O)C(O)C2(CO)OC2C2C4OC5(c6ccccc6)OC(C(C)C32O5)C4(O)C(O)(CO)C1 (stereo not drawn) [Compound 6, Trigocheriolide E]")
261
>>> numeric_value("CC1CCCCCCC(C)C(=O)OC2C(=CCl)C=C3C2(O)C(O)C2(CO)OC2C2C4OC5(c6ccccc6)OC(C(C)C32O5)C4(O)C(O)(COC(=O)c2ccccc2O)C1 (stereo not drawn) [Compound 5, Trigocherriolide A]")
313

* * *

Target: purified recombinant HIV-1 RT (Human immunodeficiency virus type 1 group M subtype B, UniProt P04585)
Construct: purified recombinant HIV-1 RT; purchased Roche
Assay: RT (reverse transcriptase) assay, ELISA RT kit
Assay type: biochemical
Conditions: read-out: EC50, inhibition of recombinant HIV-1 RT activity (converted)
Protocol: HIV-1 RT activity was measured by ELISA RT kit (Roche) using a commercially available kit according to the protocol provided by the manufacturer. Samples were incubated with DIG-labeled-reaction mixture at 37 °C for 15 h. […] The absorbance at 405/490 nm (A405/490) was determined in the ELISA reader. e. […] HIV-1 RT activity was measured by ELISA RT kit (Roche) using a commercially available kit according to the protocol provided by the manufacturer. […]
The following molecules are shown together with reported EC50 values.
value.kind: EC50 (µM)

>>> numeric_value("CC1CCCCCCC(C)C(=O)OC2C(=CCl)C=C3C2(O)C(O)C2(CO)OC2C2C4OC5(c6ccccc6)OC(C(C)C32O5)C4(O)C(C)(O)C1 (stereo not drawn) [Compound 4, Trigocherriolide B]")
278
>>> numeric_value("C=C1C=C2C3(O)C1OC(=O)C(C)CCCCCCC(C)CC(O)(COC(=O)c1ccccc1O)C1(O)C4OC5(c6ccccc6)OC1C(C1OC1(CO)C3O)C2(O5)C4C (stereo not drawn) [Compound 2, Trigonolactone D]")
60.2

* * *

Assay: in vitro
Type: cell-based
Conditions: human; C8166 cells, MTT, 3 days; read-out: cytotoxicity CC50
value.kind: CC50 (µg/mL)

>>> numeric_value("CC1CCCCCCC(C)C(=O)OC2C(=CCl)C=C3C2(O)C(O)C2(CO)OC2C2C4OC5(c6ccccc6)OC(C(C)C32O5)C4(O)C(C)(O)C1 (stereo not drawn) [Compound 4, Trigocherriolide B]")
14.9
>>> numeric_value("CC1CCCCCCC(C)C(=O)OC2C(=CCl)C=C3C2(O)C(O)C2(CO)OC2C2C4OC5(c6ccccc6)OC(C(C)C32O5)C4(O)C(O)(CO)C1 (stereo not drawn) [Compound 6, Trigocheriolide E]")
18.3
>>> numeric_value("C=C1C=C2C3(O)C1OC(=O)C(C)CCCCCCC(C)CC(O)(CO)C1(O)C4OC5(c6ccccc6)OC1C(C1OC1(CO)C3O)C2(O5)C4C (stereo not drawn)")
17.5
>>> numeric_value("C=C1C=C2C3(O)C1OC(=O)C(C)CCCCCCC(C)CC(O)(COC(=O)c1ccccc1O)C1(O)C4OC5(c6ccccc6)OC1C(C1OC1(CO)C3O)C2(O5)C4C (stereo not drawn)")
8.49
>>> numeric_value("C=C1C=C2C3(O)C1OC(=O)C(C)CCCCCCC(C)CC(C)(O)C1(O)C4OC5(c6ccccc6)OC1C(C1OC1(CO)C3O)C2(O5)C4C (stereo not drawn)")
16.5
>>> numeric_value("CC1CCCCCCC(C)C(=O)OC2C(=CCl)C=C3C2(O)C(O)C2(CO)OC2C2C4OC5(c6ccccc6)OC(C(C)C32O5)C4(O)C(O)(COC(=O)c2ccccc2O)C1 (stereo not drawn) [Compound 5, Trigocherriolide A]")
15.5
